B1: WEE1 (parent)
chain: INPFTPDSLLLHSSGQCRRRKRTY

# Variants of: B1
# Assay name: protein stability index of a GFP-peptide fusion (GPS, HEK-293T) (PSI 1-6); higher = more stable;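 note: lentivirally expressed fusions sorted by FACS into six bins by GFP to DsRed ratio, PSI derived from sequencing read proportions per bin multiplied by bin number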
# Experimental context: c terminus: a fixed tail appended
Metric name: protein stability index
Enter the number alone.

// solved cases for protein stability index follow
[[record]]
variant_label = "F4L"
metric_name = "protein stability index"
reported_measurement = 3.2

[[record]]
variant_label = "I1F"
metric_name = "protein stability index"
reported_measurement = 2.73

[[record]]
variant_label = "L11A"
metric_name = "protein stability index"
reported_measurement = 3.76

[[record]]
variant_label = "D7H"
metric_name = "protein stability index"
reported_measurement = 2.69


Provide measured protein stability index value, entry: `I1G` 3.81

Provide measured protein stability index value, entry: `R22V` 2.8

Provide measured protein stability index value, entry: `R20I` 2.95

Provide measured protein stability index value, entry: `T23L` 3.5

Provide measured protein stability index value, entry: `L10K` 3.2

Provide measured protein stability index value, entry: `L11M` 3.94
